System: MDA-MB-231 breast
Experiment: NCI-60 one-dose screen, 48 h (100 = growth as untreated, 0 = no growth, -100 = all killed)
Conditions: 10 µM unless noted
About 83,000 compounds went through this panel and 20% of them were active in at least one assay; those are over-represented in the sample as a whole.
Kindly supply the reported growth values for the records listed here.
One number for each entry, in %.

Completed entries (count: 6):
CC(C)(C)C1CCC(=NO)CC1 (stereo not drawn) :: 104
C=CCN1C(=O)c2ccccc2C1=O :: 106
C/C(=C\c1ccccc1)C(O)C(=O)c1nc2ccc([N+](=O)[O-])cc2[nH]c1=O (stereo not drawn) :: 90.8
CCc1ccc(OC(=O)CCl)cc1 :: 99.4
O=C1Cc2ccccc2C(=O)N1 :: 44.1
Oc1ccc(O)c(-c2ccccc2)c1 :: 66

Answer for every listed entry: what is its growth? The entries follow.
1. NC(=O)Cc1nc(O)cc(=O)[nH]1
2. Cc1c(Cl)c(C)c(Cc2c(C)c(Cl)c(C)c(Cl)c2O)c(O)c1Cl
3. N#CC(=S)Nc1ccc(Cl)c(Cl)c1
4. COc1cc2c(cc1O)C(=O)CCCC2
5. O=C(O)c1ccc2c3ccc(C(=O)O)c4c(C(=O)O)ccc(c5ccc(C(=O)O)c1c25)c43

Reply text:
1. 96.5
2. 2.41
3. -4.8
4. 108
5. 88.2

Answer for every listed entry: what is its growth? The entries follow.
1. CCOP(=O)(OCC)/C(C#N)=C/c1c(C)[nH]c2ccccc12
2. Cc1cnc(N)s1

Reply text:
1. 90.4
2. 91.6
